log10 CC50 overview
System: KOPTK1
test_details: Cytotoxicity against human KOPT-K1 cells incubated for 24 hrs by Celltiter-Glo assay
Assay type: functional
condition_summary: read-out: LC50 (the source's name)
Could you please treat all values as log10 of CC50 in nM?

compound	system_name	log10 CC50
Cc1nc(Nc2ncc(C(=O)Nc3c(C)cccc3Cl)s2)cc(N2CCN(CCCC(=O)N3CCN(c4ccc(C5CCC(=O)NC5=O)cc4)CC3)CC2)n1 (stereo not given)	KOPTK1	-2.30
Cc1nc(Nc2ncc(C(=O)Nc3c(C)cccc3Cl)s2)cc(N2CCN(CCCNC(=O)COc3cccc4c3C(=O)N(C3CCC(=O)NC3=O)C4=O)CC2)n1 (stereo not given)	KOPTK1	0.90
Cc1nc(Nc2ncc(C(=O)Nc3c(C)cccc3Cl)s2)cc(N2CCN(CCCNC(=O)COc3ccc(C4CCC(=O)NC4=O)cc3)CC2)n1 (stereo not given)	KOPTK1	-0.62
Cc1nc(Nc2ncc(C(=O)Nc3c(C)cccc3Cl)s2)cc(N2CCN(CCCNC(=O)COc3ccc(N4CCC(=O)NC4=O)cc3)CC2)n1	KOPTK1	1.45

Let us examine a further case.
Param item = "Cc1nc(Nc2ncc(C(=O)Nc3c(C)cccc3Cl)s2)cc(N2CCN(CCCC(=O)N3CCN(c4ccc(N5CCC(=O)NC5=O)cc4)CC3)CC2)n1" ; retrieve measured log10 CC50.
1.57
